Recorded values, source ChEMBL document CHEMBL3393016.

target: Histone chaperone ASF1A (Homo sapiens)
Sequence (Q9Y294 whole entry): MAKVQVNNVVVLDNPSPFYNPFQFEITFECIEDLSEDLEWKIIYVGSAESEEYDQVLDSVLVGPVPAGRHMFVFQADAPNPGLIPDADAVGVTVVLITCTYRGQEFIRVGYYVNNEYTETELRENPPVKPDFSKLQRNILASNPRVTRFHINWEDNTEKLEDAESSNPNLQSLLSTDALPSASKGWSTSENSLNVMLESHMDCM

- Mol: "O=C(N/N=C/c1ccncc1)c1ccc(NC(=O)c2ccccc2)cc1"
  System under test: "Histone chaperone ASF1A (Homo sapiens)"
  IC50: "> 100 µM"
- Mol: "O=C(N/N=C/c1cc(Br)ccc1O)c1ccncc1"
  System under test: "Histone chaperone ASF1A (Homo sapiens)"
  IC50: "0.6 µM"
- Mol: "O=C(N/N=C/c1cccc(OCCN2CCOCC2)c1)c1ccc(NC(=O)c2ccccc2)cc1"
  System under test: "Histone chaperone ASF1A (Homo sapiens)"
  IC50: "> 100 µM"
- Mol: "COc1cc(C/C=N/NC(=O)c2ccc(NC(=O)c3ccccc3)cc2)cc(Br)c1O"
  System under test: "Histone chaperone ASF1A (Homo sapiens)"
  IC50: "> 100 µM"
- Mol: "COc1cc(/C=N/NC(=O)c2ccccc2)cc(Br)c1O"
  System under test: "Histone chaperone ASF1A (Homo sapiens)"
  IC50: "> 100 µM"
- Mol: "COc1cc(/C=N/NC(=O)C2CCOCC2)cc(Br)c1O"
  System under test: "Histone chaperone ASF1A (Homo sapiens)"
  IC50: "> 100 µM"
